METHOD: Oral bioavailability in dosed rat
Format: ADME, organism-based
EXPERIMENTAL PARAMETERS: in vivo

| GIVEN SMILES | bioavailability |
| --- | --- |
| Cc1c(NC(=O)c2ccc(C(C)(C)C)cc2)cccc1-c1cn(C)c(=O)c(Nc2ccc(C(=O)N3CCOCC3)cc2)n1 | < 1% |

* * *

Test system: Splenocyte
METHOD: Inhibition of mouse B-cell splenocyte activation by cell proliferation assay
Format: functional, cell-based
API: label(entry) gives true if the entry's IC50 is strictly smaller than 60 nM; on equality or larger values it gives false.

| COMPOUND | TGT | GROUP LABEL |
| --- | --- | --- |
| Cc1ccccc1Nc1nc2cc(F)c(N(C)C(=O)/C=C/CN(C)C)cc2n2cncc12 | Splenocyte | true |
| CC(C)(C)c1ccc(C(=O)N[C@@H]2CCCN(c3nc(Nc4ccc(C(=O)N5CCNCC5)cc4)c4nccn4n3)C2)cc1 | Splenocyte | true |
| C=CC(=O)N1CCCC(c2c(Cl)c(-c3ccc(Oc4ccc(Cl)c(Cl)c4)c(OC)c3)c3c(N)ncnn23)C1 (stereo not given) | Splenocyte | false |
| Cc1c(NC(=O)c2ccc(N(C)C)cc2)cccc1-c1nc(Nc2ccc(C(=O)N3CCOCC3)cc2)c2nccn2n1 | Splenocyte | false |
| Cc1c(NC(=O)c2ccc(N(C)C)cc2)cccc1-c1nc(Nc2ccc(C(=O)N3CCOCC3)cc2)c2ncc(N)n2n1 | Splenocyte | true |

* * *

Test system: Macrophage
pIC50: −log10 of the molar value.
TEST READOUT: pIC50

| GIVEN SMILES | TEST READOUT | OBS VALUE |
| --- | --- | --- |
| CN1CCN(c2ccc(Nc3cc(-c4cccc(-n5ccc6cc(C7CC7)cc(F)c6c5=O)c4CO)cn(C)c3=O)nc2)CC1 | pIC50 | 8.40 |

The values you see were collected from ChEMBL document CHEMBL2057130.
